Protocol: growth inhibition of non-replicating M. tuberculosis (AID 488890);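 further: plate controls were DMSO cells for no effect and high antibiotic wells for full effect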
Test Parameters: Mycobacterium tuberculosis non-replicating, at 25 µM, stronger effect = higher value
The whole screen tested about 320,000 compounds, of which about 1,300 (0.41%) were called active. Not shown: some 3% with an inconclusive outcome. The list is a sample of the results. Entries with a potency or affinity are not part of this list.

Compound: CC1=CN2C(=N)/C(=C/c3ccc(Sc4ccc(C)cc4)o3)C(=O)N=C2S1
Reading Unit: %
inhibition: -10.5
//
Compound: CN(C)CCCNC(=O)CC1C[C@H](C(=O)N2CCOCC2)[C@@]2(CCC3CCCC3)c3[nH]c4ccccc4c3CCN2C1=O (stereo partly drawn)
Reading Unit: %
inhibition: 48.7
//
Compound: COCCNC(=O)COC(=O)CSCc1nc2ccccc2s1
Reading Unit: %
inhibition: -4.84
//
Compound: CC/C(=N\NC(N)=O)c1c(O)[nH]c(=O)[nH]c1=O
Reading Unit: %
inhibition: -25.7
//
Compound: O=C(O)c1cc(N/N=C/c2c(O)ccc3ccccc23)ccc1Cl
Reading Unit: %
inhibition: 0.25
//
Compound: CCN1CCN(C(=O)c2ccc(-c3nc4ccccc4s3)s2)CC1
Reading Unit: %
inhibition: -3.89
//
Compound: CCN(CC)c1ccc(CNCc2cccs2)cc1
Reading Unit: %
inhibition: 6.27
//
Compound: Cc1ccc(-n2ncc(C(=O)N3CCN(C(=O)c4ccco4)CC3)c2C2CCN(C(=O)OC(C)(C)C)CC2)cc1C
Reading Unit: %
inhibition: -1.31
//
Compound: Nn1c(SCC(=O)NC2CCCCC2)nnc1-c1ccccc1F
Reading Unit: %
inhibition: 9.14
//
Compound: CCN1CCN(C(=O)c2cc3cc4ccc(OC)cc4nc3s2)CC1
Reading Unit: %
inhibition: 18.5
//
Compound: COc1ccccc1OCC(O)Cn1c(=N)n(Cc2ccccc2)c2ccccc21 (stereo not drawn)
Reading Unit: %
inhibition: 45
//
Compound: CC(=O)Nc1ccc(OCC(O)Cn2nc(C)c(C(C)=O)c2C)cc1 (stereo not drawn)
Reading Unit: %
inhibition: -9.63
//
Compound: COc1ccc2ccccc2c1/C=N/Nc1ccc(Cl)c(C(=O)O)c1
Reading Unit: %
inhibition: -12.5
